EXPERIMENTAL TARGET: Huntingtin (Homo sapiens) (UniProt P42858)
Sequence (P42858 whole entry, looked up, stated change not applied): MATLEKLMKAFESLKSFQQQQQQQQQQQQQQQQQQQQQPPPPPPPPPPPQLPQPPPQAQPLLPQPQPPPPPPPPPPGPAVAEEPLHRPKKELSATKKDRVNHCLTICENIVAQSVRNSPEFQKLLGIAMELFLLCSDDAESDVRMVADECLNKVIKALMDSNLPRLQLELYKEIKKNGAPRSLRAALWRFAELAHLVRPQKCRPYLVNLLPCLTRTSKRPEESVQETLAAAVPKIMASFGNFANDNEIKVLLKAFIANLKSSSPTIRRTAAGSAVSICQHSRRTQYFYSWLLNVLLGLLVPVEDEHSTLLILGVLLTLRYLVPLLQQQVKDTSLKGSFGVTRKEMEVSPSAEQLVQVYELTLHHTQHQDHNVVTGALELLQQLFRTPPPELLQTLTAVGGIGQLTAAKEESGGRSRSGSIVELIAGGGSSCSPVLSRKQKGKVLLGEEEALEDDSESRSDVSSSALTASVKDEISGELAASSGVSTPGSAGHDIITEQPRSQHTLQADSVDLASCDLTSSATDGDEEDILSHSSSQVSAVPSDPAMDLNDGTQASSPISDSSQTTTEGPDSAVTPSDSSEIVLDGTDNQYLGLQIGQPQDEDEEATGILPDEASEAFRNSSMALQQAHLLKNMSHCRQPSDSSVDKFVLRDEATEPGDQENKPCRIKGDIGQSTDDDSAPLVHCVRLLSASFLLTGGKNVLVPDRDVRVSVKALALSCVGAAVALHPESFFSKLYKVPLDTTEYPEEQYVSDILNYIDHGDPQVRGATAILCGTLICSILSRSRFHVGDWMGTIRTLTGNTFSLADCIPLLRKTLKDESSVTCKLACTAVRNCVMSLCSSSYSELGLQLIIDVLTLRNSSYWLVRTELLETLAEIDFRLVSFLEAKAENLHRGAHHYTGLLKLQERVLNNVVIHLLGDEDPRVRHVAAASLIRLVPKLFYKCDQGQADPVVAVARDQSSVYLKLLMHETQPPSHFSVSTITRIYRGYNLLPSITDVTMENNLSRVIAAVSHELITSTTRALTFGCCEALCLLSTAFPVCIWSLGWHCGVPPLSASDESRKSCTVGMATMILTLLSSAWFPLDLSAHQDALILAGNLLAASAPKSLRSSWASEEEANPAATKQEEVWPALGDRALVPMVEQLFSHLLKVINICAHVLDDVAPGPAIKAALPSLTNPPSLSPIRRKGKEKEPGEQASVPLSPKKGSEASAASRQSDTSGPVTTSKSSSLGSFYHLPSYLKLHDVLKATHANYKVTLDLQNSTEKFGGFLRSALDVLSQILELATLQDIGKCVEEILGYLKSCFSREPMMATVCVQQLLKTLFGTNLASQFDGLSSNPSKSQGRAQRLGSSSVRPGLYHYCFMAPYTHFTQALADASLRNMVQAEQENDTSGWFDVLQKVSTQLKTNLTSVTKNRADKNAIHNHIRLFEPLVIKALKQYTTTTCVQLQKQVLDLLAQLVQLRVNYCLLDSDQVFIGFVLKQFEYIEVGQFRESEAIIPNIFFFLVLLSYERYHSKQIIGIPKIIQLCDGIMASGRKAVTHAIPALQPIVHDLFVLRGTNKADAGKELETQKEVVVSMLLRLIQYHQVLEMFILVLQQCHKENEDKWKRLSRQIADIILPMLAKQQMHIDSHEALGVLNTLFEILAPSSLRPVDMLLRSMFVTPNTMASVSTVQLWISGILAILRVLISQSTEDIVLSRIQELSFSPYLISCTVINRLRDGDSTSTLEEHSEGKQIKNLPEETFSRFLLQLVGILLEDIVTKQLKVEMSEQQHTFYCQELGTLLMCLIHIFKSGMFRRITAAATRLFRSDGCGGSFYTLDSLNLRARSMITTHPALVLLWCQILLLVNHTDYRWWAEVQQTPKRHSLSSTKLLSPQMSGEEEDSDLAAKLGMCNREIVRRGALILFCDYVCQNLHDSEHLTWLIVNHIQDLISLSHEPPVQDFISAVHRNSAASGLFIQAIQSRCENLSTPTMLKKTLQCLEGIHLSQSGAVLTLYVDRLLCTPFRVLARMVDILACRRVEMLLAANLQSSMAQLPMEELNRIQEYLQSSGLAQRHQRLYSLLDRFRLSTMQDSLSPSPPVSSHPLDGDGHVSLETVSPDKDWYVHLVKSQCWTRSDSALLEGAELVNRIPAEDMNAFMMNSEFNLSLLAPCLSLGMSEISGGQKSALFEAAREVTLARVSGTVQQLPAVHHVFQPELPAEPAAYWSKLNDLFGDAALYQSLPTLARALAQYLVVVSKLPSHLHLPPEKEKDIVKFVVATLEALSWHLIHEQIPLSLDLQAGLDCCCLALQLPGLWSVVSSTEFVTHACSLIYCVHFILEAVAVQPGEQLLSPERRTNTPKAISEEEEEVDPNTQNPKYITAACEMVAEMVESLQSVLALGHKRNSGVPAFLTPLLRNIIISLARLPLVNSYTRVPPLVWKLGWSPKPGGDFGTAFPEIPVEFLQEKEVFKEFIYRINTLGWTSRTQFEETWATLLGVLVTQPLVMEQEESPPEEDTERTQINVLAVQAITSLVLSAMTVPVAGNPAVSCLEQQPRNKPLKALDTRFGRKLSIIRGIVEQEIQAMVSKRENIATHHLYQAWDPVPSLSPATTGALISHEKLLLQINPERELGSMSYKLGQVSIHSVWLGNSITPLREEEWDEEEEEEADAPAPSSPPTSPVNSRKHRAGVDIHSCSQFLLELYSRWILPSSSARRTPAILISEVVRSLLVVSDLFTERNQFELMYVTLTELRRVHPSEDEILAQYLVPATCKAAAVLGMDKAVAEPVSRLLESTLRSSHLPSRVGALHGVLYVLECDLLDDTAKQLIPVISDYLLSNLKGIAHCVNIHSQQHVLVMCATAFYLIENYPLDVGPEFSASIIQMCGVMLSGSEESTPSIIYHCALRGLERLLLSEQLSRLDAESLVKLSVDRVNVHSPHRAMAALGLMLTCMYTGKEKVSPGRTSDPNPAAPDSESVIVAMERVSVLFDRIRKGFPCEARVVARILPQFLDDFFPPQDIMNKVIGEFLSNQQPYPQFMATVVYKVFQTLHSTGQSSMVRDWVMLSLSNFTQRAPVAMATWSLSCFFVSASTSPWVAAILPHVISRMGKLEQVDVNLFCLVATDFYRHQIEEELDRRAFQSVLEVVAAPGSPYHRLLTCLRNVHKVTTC
TEST METHOD NOTES: mutant huntingtin-calmodulin interaction inhibitors – biochemical, AlphaScreen, primary screen (AID 1671202);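 further: 0% = both proteins with DMSO and 100% = one protein alone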
TEST SETTINGS: AlphaScreen His-mHTT/GST-CaM binding, luminescence; at 15 µM, stronger effect = higher value
Hit rate of the full screen: of about 190,000 compounds, about 6,900 (3.6%) were called active. The sample holds actives, similar compounds and a random draw of the others, so the mix is not that of the screen.
Returns yes if the recorded inhibition is greater than or equal to 10%, and no otherwise.

QUERY: Assess whether reported inhibition for COc1cc2c(cc1OC)C(COc1cc(C)cc(C)c1)N(C(=O)CC1CCCCC1)CC2 (stereo not given) sits at 10% or higher.
RESULT: yes

QUERY: Assess whether reported inhibition for CC(C)(CCl)C(=O)N1CCN(c2cc(Oc3ccc(F)c(F)c3)ncn2)CC1 sits at 10% or higher.
RESULT: no

QUERY: Assess whether reported inhibition for COc1ccc(Cl)cc1C(=O)N1CCN(c2cccc(Cl)c2)CC1 sits at 10% or higher.
RESULT: no

QUERY: Assess whether reported inhibition for COc1ccc(Cl)cc1C(=O)N1CCn2c(C)nnc2C1 sits at 10% or higher.
RESULT: no

QUERY: Assess whether reported inhibition for O=C(Nc1ccc([N+](=O)[O-])cc1)C12CC3CC(C1)CC(c1ccccc1)(C3)C2 sits at 10% or higher.
RESULT: yes

QUERY: Assess whether reported inhibition for CCCCC(=O)N1CCc2cc(OC)c(OC)cc2C1COc1ccc(C(=O)OC)cc1 (stereo not given) sits at 10% or higher.
RESULT: yes

QUERY: Assess whether reported inhibition for O=C(O)/C(=C\c1cccc([N+](=O)[O-])c1)NC(=O)c1ccco1 sits at 10% or higher.
RESULT: no

QUERY: Assess whether reported inhibition for COc1ccc(-c2coc3c(C)c4oc(=O)c5ccccc5c4cc23)cc1F sits at 10% or higher.
RESULT: no

QUERY: Assess whether reported inhibition for COc1ccc(-n2nc3cc(C)c(NC(=O)c4ccccc4F)cc3n2)cc1 sits at 10% or higher.
RESULT: no

QUERY: Assess whether reported inhibition for Cc1ccc(C(=O)N2CCc3sc(C(=O)NCc4ccco4)cc3C2)cc1 sits at 10% or higher.
RESULT: yes

====

Please respond with reported inhibition for every item in the list.
EXPERIMENTAL TARGET: Huntingtin (Homo sapiens) (UniProt P42858)
TEST METHOD NOTES: mutant huntingtin-calmodulin interaction inhibitors – biochemical, AlphaScreen, primary screen (AID 1671202);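 further: 0% = both proteins with DMSO and 100% = one protein alone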
TEST SETTINGS: AlphaScreen His-mHTT/GST-CaM binding, luminescence; at 15 µM, stronger effect = higher value
Among all 190,000 compounds or so, about 6,900 (3.6%) were called active. Many of the other results were omitted from the sample, so actives are more common in it than they were.
Give the value, in units of %, as a plain number.

QUERY: Field request: inhibition | item: CC(C)Cn1c(C2CCN(C(=O)c3n[nH]c4c3CCCC4)C2)nc2ccncc21 (stereo unspecified)
RESULT: 5.16

QUERY: Field request: inhibition | item: CCCCN1C[C@H](c2ccc(Br)cc2)[C@@H](CC(=O)Nc2ccc(Br)cc2)C1=O
RESULT: 96.5

QUERY: Field request: inhibition | item: COc1ccccc1N1CCN(C(=O)Cc2csc(Nc3nc(C)cc(C)n3)n2)CC1
RESULT: 65

QUERY: Field request: inhibition | item: COc1nccnc1NS(=O)(=O)c1ccc(NC(=O)c2ccc(C(C)(C)C)cc2)cc1
RESULT: 13.2

QUERY: Field request: inhibition | item: CCCCC[C@H](C)N1C[C@@H](COCc2ccccc2)Oc2cc(N3CCC[C@@H]3CO)ccc2S1(=O)=O
RESULT: 3.5

QUERY: Field request: inhibition | item: COc1ccc(C(=O)COc2ccc3c(c2)OC(=Cc2cc(OC)c(OC)c(OC)c2)C3=O)cc1
RESULT: 2.6

QUERY: Field request: inhibition | item: COC(=O)Nc1nc(CC(=O)NCc2ccco2)cs1
RESULT: -3.8

QUERY: Field request: inhibition | item: C[C@H]1CN(c2ccc(Br)cc2)C(=O)[C@@H]1CC(=O)Nc1ccc(Br)cc1
RESULT: 2.2

QUERY: Field request: inhibition | item: Cc1ccccc1NCc1cc(=O)oc2cc(O)c(O)cc12
RESULT: 29.6

QUERY: Field request: inhibition | item: CC(=O)NC(=Nc1nc(C)cc(C)n1)Nc1cccc(C)c1C
RESULT: 0

QUERY: Field request: inhibition | item: N#Cc1nc(-c2ccco2)oc1N1CCN(C(=O)c2ccccc2F)CC1
RESULT: -5.8

QUERY: Field request: inhibition | item: O=C(Nc1cccc(Cl)c1)C1CCCN(c2nccnc2Oc2ccccc2)C1 (stereo unspecified)
RESULT: -9.65

QUERY: Field request: inhibition | item: COc1ccccc1N1CCN(C(=O)CSCc2ccccc2C)CC1
RESULT: 66.4

QUERY: Field request: inhibition | item: CCCCN1CC(C)(C)[C@H](CC(=O)Nc2ccc(Br)cc2)C1=O
RESULT: -13.5

QUERY: Field request: inhibition | item: O=C1NC(=O)/C(=C\c2ccc(-c3cccc(Cl)c3)o2)S1
RESULT: 58

QUERY: Field request: inhibition | item: COc1ccccc1N1CCN(C(=O)c2cn3ccc(C)cc3n2)CC1
RESULT: 0.9

QUERY: Field request: inhibition | item: Cc1cc(C)nc(Nc2nc(CC(=O)Nc3nc(-c4ccco4)cs3)cs2)n1
RESULT: 83.2

QUERY: Field request: inhibition | item: CC(C)C1(CCN(Cc2ccc3c(c2)OCO3)C(=O)c2ccco2)CCOC(C)(C)C1 (stereo unspecified)
RESULT: -2.26

QUERY: Field request: inhibition | item: COc1ccc(OC)c(C=C2Oc3c(ccc(O)c3CN3CCCCC3C)C2=O)c1 (stereo unspecified)
RESULT: -1.3

QUERY: Field request: inhibition | item: Cc1cccc(CSC2=NCCN2C(=O)Cc2ccc(F)cc2)c1
RESULT: -24

QUERY: Field request: inhibition | item: CC(C)n1c(C2CCN(C(=O)C3(c4ccccc4)CC3)C2)nc2ccncc21 (stereo unspecified)
RESULT: 1.58

====

EXPERIMENTAL TARGET: Huntingtin (Homo sapiens) (UniProt P42858)
TEST METHOD NOTES: mutant huntingtin-calmodulin interaction inhibitors – biochemical, AlphaScreen, primary screen (AID 1671202);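 further: 0% = both proteins with DMSO and 100% = one protein alone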
TEST SETTINGS: AlphaScreen His-mHTT/GST-CaM binding, luminescence; at 15 µM
Out of some 190,000 compounds screened, about 6,900 (3.6%) were called active. Rule as the data show it: active = inhibition above about 50%; inactive = the rest. Only a selection was taken, and actives are over-represented in it overall.
Can you answer with just one of these options? active, inactive

QUERY: # lookup: test call for CCC(C)NC(=O)Cn1cnc2c(oc3ccccc32)c1=O (stereo not drawn)
RESULT: inactive

QUERY: # lookup: test call for O=C(NC1CC2CC1N(C(=O)NCCc1ccccc1)C2)c1cccnc1 (stereo not drawn)
RESULT: inactive

QUERY: # lookup: test call for CCOC(=O)N1CCN(Cc2nc(-c3ccc(N4CCCCCC4)nc3)no2)CC1
RESULT: active

QUERY: # lookup: test call for COc1ccc(-c2nnc(N3CCC(C(=O)NCc4cccc(OC)c4)CC3)o2)cc1
RESULT: inactive

QUERY: # lookup: test call for O=C(Nc1ccc(F)cc1F)N1CCc2nc[nH]c2C1
RESULT: inactive

QUERY: # lookup: test call for Cc1ccc(S(=O)(=O)CCC(=O)Nc2c(F)cccc2F)cc1
RESULT: inactive

QUERY: # lookup: test call for CCC(=O)Nc1ccc(S(=O)(=O)N2CCN(C)c3ccccc32)cc1
RESULT: inactive

QUERY: # lookup: test call for Cc1ccc(C(=O)Nc2cnc(N3CCCCC3)nc2)c(C)c1
RESULT: inactive

QUERY: # lookup: test call for CC(C)C(=O)Nc1ccc(N2CCCN(C(=O)C3CC3)CC2)nc1
RESULT: inactive

QUERY: # lookup: test call for Nc1nc(-c2cc3cc(Br)cc(Br)c3oc2=O)cs1
RESULT: inactive

QUERY: # lookup: test call for CCOc1ccc(CC(=O)N2CC3CC2CC3NC(=O)c2ccccc2)cc1 (stereo not drawn)
RESULT: inactive

QUERY: # lookup: test call for c1cc(N2CCCCCC2)ncc1-c1noc(CN2CCCC2)n1
RESULT: inactive

QUERY: # lookup: test call for O=C(NCc1cccc(F)c1)c1cc2n(n1)CCCN(Cc1ccc(Cl)cc1)C2=O
RESULT: inactive

QUERY: # lookup: test call for Cc1ccc(C(=O)N2CCc3sc(C(=O)NCCC(C)C)cc3C2)cc1
RESULT: inactive

QUERY: # lookup: test call for N#CC1=C2C=CC(O)=CC2OC=C1N (stereo not drawn)
RESULT: active

QUERY: # lookup: test call for CCN1c2ccc(C)cc2C(=O)NC12CCN(C(=O)c1cc(F)cc(F)c1)CC2
RESULT: inactive

QUERY: # lookup: test call for CCOc1ccc(CN2C(=O)CCC2(C)C(=O)NC2CCCC(C)C2C)cc1 (stereo not drawn)
RESULT: inactive

QUERY: # lookup: test call for Cc1nc(-c2ccc(N3CCN(C(=O)C4CCCO4)CC3)nc2)no1 (stereo not drawn)
RESULT: inactive

QUERY: # lookup: test call for COc1cc(C(=O)N2CCC(CC(=O)NCc3ccccn3)CC2)cc(OC)c1OC
RESULT: inactive

QUERY: # lookup: test call for CCCNC(=O)C1CCN(Cc2cn(C)c3ccc(Cl)cc23)CC1
RESULT: inactive

QUERY: # lookup: test call for CC(=O)NCc1cnn(-c2ccc(C(=O)Nc3ccccc3)cc2)c1
RESULT: inactive

QUERY: # lookup: test call for Cc1ccc(SCC(=O)N2CCN(C)CC2)cc1
RESULT: inactive

QUERY: # lookup: test call for COc1cc(NC(=O)c2ccccc2OC)c(OC)cc1Cl
RESULT: inactive
